system: Nicotinic acetylcholine receptor alpha8 subunit (Periplaneta americana, UniProt H6TY12)
Sequence (H6TY12 whole entry): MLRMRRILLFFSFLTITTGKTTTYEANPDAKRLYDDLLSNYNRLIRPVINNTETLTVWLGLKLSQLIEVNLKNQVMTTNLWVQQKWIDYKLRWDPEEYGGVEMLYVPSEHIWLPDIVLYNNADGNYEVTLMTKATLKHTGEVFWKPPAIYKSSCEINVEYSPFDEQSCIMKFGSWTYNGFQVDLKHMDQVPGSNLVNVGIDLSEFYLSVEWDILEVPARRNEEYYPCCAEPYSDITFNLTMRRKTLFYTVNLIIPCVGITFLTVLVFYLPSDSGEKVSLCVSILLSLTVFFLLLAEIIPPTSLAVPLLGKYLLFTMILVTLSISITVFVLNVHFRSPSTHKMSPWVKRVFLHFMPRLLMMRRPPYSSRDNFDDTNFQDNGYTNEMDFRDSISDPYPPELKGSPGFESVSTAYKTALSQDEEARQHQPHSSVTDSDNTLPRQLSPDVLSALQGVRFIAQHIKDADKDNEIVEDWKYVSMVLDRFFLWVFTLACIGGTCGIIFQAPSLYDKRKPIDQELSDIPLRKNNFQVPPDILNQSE
assay overview: Displacement of [3H]epibatidine from nAChR in Periplaneta americana (American cockroach) nerve cords membranes incubated at 24 degC for 2 hr by liquid scintillation counting method

- molecule: "Oc1ccc(/C=C2\\CCN=C2c2cccnc2)c(O)c1"
  result operator: "="
  IC50 / µM: 0.12
- molecule: "Oc1ccc(/C=C2\\CCN=C2c2cccnc2)cc1"
  result operator: "="
  IC50 / µM: 0.31
- molecule: "CN(C)c1ccc(/C=C2\\CCN=C2c2cccnc2)cc1"
  result operator: "="
  IC50 / µM: 5.49
- molecule: "CN(C)c1ccc(/C=C/C=C2\\CCN=C2c2cccnc2)cc1"
  result operator: "="
  IC50 / µM: 2.07
- molecule: "Fc1ccc(/C=C2\\CCN=C2c2cccnc2)cc1"
  result operator: ">"
  IC50 / µM: 10
- molecule: "COc1ccc(/C=C2\\CCN=C2c2cccnc2)c(OC)c1"
  result operator: "="
  IC50 / µM: 4.55
- molecule: "Clc1ccc(C2=NCCC/C2=C\\c2ccccc2)cn1"
  result operator: "="
  IC50 / µM: 0.0212
- molecule: "c1cncc(C2=NCCC2)c1 [MYOSMINE]"
  result operator: ">"
  IC50 / µM: 10
- molecule: "Clc1ccc(/C=C2\\CCN=C2c2cccnc2)cc1"
  result operator: ">"
  IC50 / µM: 10
- molecule: "N#Cc1ccc(/C=C2\\CCN=C2c2cccnc2)cc1"
  result operator: ">"
  IC50 / µM: 10
- molecule: "Oc1cccc(/C=C2\\CCN=C2c2cccnc2)c1"
  result operator: ">"
  IC50 / µM: 10
- molecule: "COc1ccc(/C=C2\\CCN=C2c2cccnc2)c(O)c1"
  result operator: "="
  IC50 / µM: 3.89
- molecule: "COc1cccc(/C=C2\\CCN=C2c2cccnc2)c1"
  result operator: ">"
  IC50 / µM: 10
- molecule: "C(=C1/CCN=C1c1cccnc1)/c1ccccc1"
  result operator: ">"
  IC50 / µM: 10
- molecule: "COc1ccccc1/C=C1\\CCN=C1c1cccnc1"
  result operator: ">"
  IC50 / µM: 10
- molecule: "COc1ccc(/C=C2\\CCN=C2c2cccnc2)cc1"
  result operator: ">"
  IC50 / µM: 10
- molecule: "C(=C\\c1ccccc1)/C=C1\\CCN=C1c1cccnc1 [3-CINNAMYLIDENEMYOSMINE]"
  result operator: "="
  IC50 / µM: 3.52
- molecule: "Oc1ccccc1/C=C1\\CCN=C1c1cccnc1"
  result operator: "="
  IC50 / µM: 6.9
- molecule: "C(=C1/CCCN=C1c1cccnc1)/c1ccccc1 [3-BENZYLIDENEANABASEINE]"
  result operator: "="
  IC50 / µM: 0.035

----------
system: Nicotinic acetylcholine receptor alpha8 subunit (Periplaneta americana)
assay overview: Displacement of [3H]epibatidine from nAChR in Periplaneta americana (American cockroach) nerve cords membranes at 10 uM incubated at 24 degC for 2 hr by liquid scintillation counting method

- compound: "Fc1ccc(/C=C2\\CCN=C2c2cccnc2)cc1"
  inhibition: "22.3%"
- compound: "N#Cc1ccc(/C=C2\\CCN=C2c2cccnc2)cc1"
  inhibition: "31.4%"
- compound: "COc1cccc(/C=C2\\CCN=C2c2cccnc2)c1"
  inhibition: "23.6%"
- compound: "COc1ccc(/C=C2\\CCN=C2c2cccnc2)cc1"
  inhibition: "31.4%"
- compound: "Oc1cccc(/C=C2\\CCN=C2c2cccnc2)c1"
  inhibition: "32.1%"
- compound: "COc1ccccc1/C=C1\\CCN=C1c1cccnc1"
  inhibition: "49.5%"
- compound: "c1cncc(C2=NCCC2)c1 [MYOSMINE]"
  inhibition: "27.3%"
- compound: "Clc1ccc(/C=C2\\CCN=C2c2cccnc2)cc1"
  inhibition: "21.5%"
- compound: "C(=C1/CCN=C1c1cccnc1)/c1ccccc1"
  inhibition: "41.3%"

These data points were gathered from ChEMBL document CHEMBL3045473.
